The origin of these recorded values is patent US11173151B2.

experimental_target: human V1a receptor (Homo sapiens, UniProt P37288)
Construct: expressed in transfected cells; host or cells: CHO K1 (ATCC), also stably transfected with a modified aequorin
Sequence (P37288 whole entry): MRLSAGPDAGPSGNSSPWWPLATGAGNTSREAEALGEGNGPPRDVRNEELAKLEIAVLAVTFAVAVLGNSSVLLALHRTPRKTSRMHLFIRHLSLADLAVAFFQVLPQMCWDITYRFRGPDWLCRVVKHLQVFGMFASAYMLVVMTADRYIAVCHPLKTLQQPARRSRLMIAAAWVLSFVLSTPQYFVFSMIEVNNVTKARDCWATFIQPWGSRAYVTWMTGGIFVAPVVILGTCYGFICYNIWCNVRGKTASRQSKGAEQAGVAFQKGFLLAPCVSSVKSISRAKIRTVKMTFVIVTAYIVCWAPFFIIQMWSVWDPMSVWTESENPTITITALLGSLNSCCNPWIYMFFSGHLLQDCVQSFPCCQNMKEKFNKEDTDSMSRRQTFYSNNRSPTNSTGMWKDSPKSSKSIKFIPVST
test_name: Cellular in vitro assay for determining vasopressin receptor activity, V1a receptor cell line (CHO, aequorin luminescence)
Assay type: cell-based
condition_details: CHO cell line transfected with human V1a receptor; [Arg]-vasopressin at EC50 concentration; read-out: IC50 hV1a
pIC50: −log10 of the molar value.
endpoint: pIC50

compound | observed
CC1(NC(=O)c2ccncc2-n2nc(Cn3nc(-c4ccc(Cl)cc4)n(C[C@H](O)C(F)(F)F)c3=O)nc2C(=O)N2CCNC(=O)C2)CC1 [Example 515] | 5.70
O=C(NC1CC1)c1cccc(Cl)c1-n1cnc(Cn2nc(-c3ccc(Cl)cc3)n(C[C@@H](O)C(F)(F)F)c2=O)n1 [Example 393] | 7.78
O=C(CC1CCCCO1)Nc1ncccc1-n1cnc(Cn2nc(-c3ccc(Cl)cc3)n(C[C@H](O)C(F)(F)F)c2=O)n1 (stereo partly drawn) [Example 165] | 7.18
O=C(N[C@H]1C[C@@H]1F)c1ncccc1-n1nc(Cn2nc(-c3ccc(Cl)cc3)n(C[C@@H](O)C(F)(F)F)c2=O)nc1N1CCS(=O)(=O)CC1 (racemic) [Example 487] | 5.28

[a] O=C(c1ccccc1-n1cnc(Cn2nc(-c3ccc(Cl)cc3)n(C[C@H](O)C(F)(F)F)c2=O)n1)N1CCSC1 [Example 334]
[b] O=C1CCN(C(=O)c2ccccc2-n2cnc(Cn3nc(-c4ccc(Cl)cc4)n(C[C@H](O)C(F)(F)F)c3=O)n2)CCN1 [Example 265]
## Input Could you point out whether the larger pIC50 belongs to a or to b ? Pick one; state its label.
## Output a

====

experimental_target: human V1a receptor (Homo sapiens, UniProt P37288)
Construct: expressed in transfected cells; host or cells: CHO K1 (ATCC), also stably transfected with a modified aequorin
test_name: Cellular in vitro assay for determining vasopressin receptor activity, V1a receptor cell line (CHO, aequorin luminescence)
Assay type: cell-based
condition_details: selectivity ratio IC50 hV2 / IC50 hV1a
Protocol: B-1. Cellular In Vitro Assay for Determining Vasopressin Receptor Activity The identification of agonists and antagonists of the V1a and V2 vasopressin receptors from humans, rats and dogs as well as the quantification of the activity of the compounds of the invention is carried out using recombinant cell lines. […] The bioluminescence of the cell lines is detected using a suitable luminometer [Milligan G, Marshall F, Rees S, Trends in Pharmacological Sciences 17, 235-237 (1996)]. […]
endpoint: ratio IC50 hV2/hV1a

[A] O=C(c1cccc(Cl)c1-n1cnc(Cn2nc(-c3ccc(Cl)cc3)n(C[C@H](O)C(F)(F)F)c2=O)n1)N1CCOCC1 [Example 382]
[B] NC(=O)[C@H]1CCCN1c1ccncc1-n1cnc(Cn2nc(-c3ccc(Cl)cc3)n(C[C@H](O)C(F)(F)F)c2=O)n1 [Example 22]
## Input For A and B , which recorded ratio IC50 hV2/hV1a is lower? Your answer should be the label of the entry you select.
## Output B
(B: 2.8, A: 80.1)

[P] O=C(NCC(F)(F)F)c1ccncc1-n1nc(Cn2nc(-c3ccc(Cl)cc3)n(C[C@H](O)C(F)(F)F)c2=O)nc1C(=O)N1CCS(=O)(=O)CC1 [Example 518]
[Q] O=C(Nc1cccnc1-n1cnc(Cn2nc(-c3ccc(Cl)cc3)n(C[C@H](O)C(F)(F)F)c2=O)n1)C1CC1F (stereo partly drawn) [Example 54]
[R] O=C(CN1CCCC1=O)Nc1ncccc1-n1cnc(Cn2nc(-c3ccc(Cl)cc3)n(C[C@H](O)C(F)(F)F)c2=O)n1 [Example 91]
## Input Reorder: ratio IC50 hV2/hV1a, max to min. Please reply with the labels ordered as requested. Many thanks.
## Output Q, R, P
(Q: 90.4, R: 6.4, P: 0.5)
